Data credit: patent US6339077B1

Listed below: melting point values for each entry.
metric.name: melting point

>  <compound>
COC(=O)c1c(C)nc2cccc(C)c2c1NCc1ccc(CCC2(O)CCC3(C)C(CC(O)C4C3CC(O)C3(C)C4CC[C@@H]3C(C)CCC(=O)O)C2)cc1 (some centres unmarked)

>  <assay.result>
> 180 °C (dec.)

$$$$
>  <compound>
COC(=O)c1c(C)nc2cccc(C)c2c1NCc1ccc(C#CC2(O)CCC3(C)C(CC(O)C4C3CC(O)C3(C)C4CC[C@@H]3C(C)CCC(=O)O)C2)cc1 (some centres unmarked) [Example 11]

>  <assay.result>
> 155 °C

$$$$
>  <compound>
Cc1nc2ccccc2c(NCc2ccccc2)c1C(=O)NCCOC1CCC2(C)C(C1)CC(O)C1C2CC(O)C2(C)C1CC[C@@H]2C(C)CCC(=O)O (some centres unmarked)

>  <assay.result>
143 °C

$$$$
>  <compound>
CCc1nc2ccccc2c(NCc2ccc(CCC3(O)CCC4(C)C(CC(O)C5C4CC(O)C4(C)C5CC[C@@H]4C(C)CCC(=O)O)C3)cc2)c1C(=O)OC (some centres unmarked)

>  <assay.result>
> 190 °C (dec.)

$$$$
>  <compound>
Cc1nc2ccccc2c(NCc2ccc(C#CC3(O)CCC4(C)C(CC(O)C5C4CC(O)C4(C)C5CC[C@@H]4C(C)CCC(=O)O)C3)cc2)c1C(=O)OC(C)C (some centres unmarked)

>  <assay.result>
150 °C

$$$$
>  <compound>
CC(=O)c1c(C)nc2ccccc2c1NCc1ccc(C(=O)NCCO[C@H]2CC[C@@]3(C)C(C2)C[C@@H](O)C2C3C[C@H](O)[C@@]3(C)C2CC[C@@H]3[C@H](C)CCC(=O)O)cc1 (some centres unmarked) [Example 20]

>  <assay.result>
> 145 °C (dec.)

$$$$
>  <compound>
CC(=O)c1c(C)nc2ccccc2c1NCc1cccc(CCC2(O)CC[C@@]3(C)C(CC(O)C4C3CC(O)[C@@]3(C)C4CC[C@@H]3[C@H](C)CCC(=O)O)C2)c1 (some centres unmarked) [Example 14]

>  <assay.result>
> 170 °C (dec.)

$$$$
>  <compound>
CC(=O)c1c(C)nc2ccccc2c1NCc1cccc(C#CC2(O)CC[C@@]3(C)C(CC(O)C4C3CC(O)[C@@]3(C)C4CC[C@@H]3[C@H](C)CCC(=O)O)C2)c1 (some centres unmarked) [Example 13]

>  <assay.result>
> 195 °C (dec.)

$$$$

###

- target.entity: human NHE-3 protein (expressed in the LAP1 cell line) (Homo sapiens, UniProt P48764)
- Construct: expressed in transfected cells; host or cells: LAP1 cell line
- Sequence (P48764 26-834): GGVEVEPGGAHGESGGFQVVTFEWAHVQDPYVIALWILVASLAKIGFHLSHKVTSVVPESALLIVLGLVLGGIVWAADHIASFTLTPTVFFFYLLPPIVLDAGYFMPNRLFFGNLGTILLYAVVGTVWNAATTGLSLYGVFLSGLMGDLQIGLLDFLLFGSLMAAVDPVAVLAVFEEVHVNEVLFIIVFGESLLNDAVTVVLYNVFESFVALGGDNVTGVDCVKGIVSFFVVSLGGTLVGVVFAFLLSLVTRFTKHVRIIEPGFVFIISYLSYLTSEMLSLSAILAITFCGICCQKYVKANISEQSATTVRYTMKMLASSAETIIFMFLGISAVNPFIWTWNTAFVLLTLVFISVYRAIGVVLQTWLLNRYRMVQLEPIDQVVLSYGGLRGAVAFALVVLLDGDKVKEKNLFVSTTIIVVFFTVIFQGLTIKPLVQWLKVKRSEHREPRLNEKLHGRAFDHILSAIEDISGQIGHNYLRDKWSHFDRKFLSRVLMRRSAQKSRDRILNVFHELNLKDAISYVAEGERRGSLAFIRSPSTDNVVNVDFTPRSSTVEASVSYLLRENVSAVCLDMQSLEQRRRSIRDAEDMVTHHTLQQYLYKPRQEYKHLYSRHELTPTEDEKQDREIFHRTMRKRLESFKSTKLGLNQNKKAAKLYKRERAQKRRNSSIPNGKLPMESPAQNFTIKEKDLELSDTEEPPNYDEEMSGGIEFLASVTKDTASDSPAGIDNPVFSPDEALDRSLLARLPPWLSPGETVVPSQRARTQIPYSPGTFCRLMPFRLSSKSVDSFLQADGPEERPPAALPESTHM
- protocol.notes: Inhibition of sodium/proton exchanger subtype 3: recovery of intracellular pH after acidification (BCECF fluorescence)
- Type: cell-based
- experimental.setup: pHi recovery as percentage of the maximum recovery, read-out: remaining activity of hNHE3

>  <compound>
CC(=O)c1c(C)nc2ccccc2c1NCc1cccc(CC[C@@]2(O)CC[C@@]3(C)C(C[C@@H](O)C4C3C[C@H](O)[C@@]3(C)C4CC[C@@H]3[C@H](C)CCC(=O)NCC(=O)O)C2)c1 (some centres unmarked) [Example 15]

>  <remaining activity at 30 µM>
65%

$$$$
>  <compound>
CC(=O)c1c(NCc2ccc(CCC3(O)CC[C@@]4(C)C(CC(O)C5C4CC(O)[C@@]4(C)C5CC[C@@H]4[C@H](C)CCC(=O)O)C3)cc2)cc(C)nc1C (some centres unmarked) [Example 31]

>  <remaining activity at 30 µM>
69%

$$$$
>  <compound>
CC(=O)c1c(NCc2ccc(C#CC3(O)CC[C@@]4(C)C(CC(O)C5C4CC(O)[C@@]4(C)C5CC[C@@H]4[C@H](C)CCC(=O)O)C3)cc2)cc(C)nc1C (some centres unmarked) [Example 30]

>  <remaining activity at 30 µM>
48%

$$$$
>  <compound>
CC(=O)c1c(C)nc2ccccc2c1NCc1cccc(CC[C@@]2(O)CC[C@@]3(C)C(C[C@@H](O)C4C3C[C@H](O)[C@@]3(C)C4CC[C@@H]3[C@H](C)CCC(=O)NCCS(=O)(=O)O)C2)c1 (some centres unmarked) [Example 16]

>  <remaining activity at 30 µM>
27%

$$$$
>  <compound>
CC(=O)c1c(C)nc2ccccc2c1NCc1ccc(C#CC2(O)CCC3(C)C(CC(O)C4C3CC(O)C3(C)C4CC[C@@H]3C(C)CCC(=O)O)C2)cc1F (some centres unmarked) [Example 26]

>  <remaining activity at 30 µM>
52%

$$$$

###

Where a name gives a salt, the structure may show the parent alone.

>  <molecule>
COC(=O)c1c(C)nc2ccc(CCC3(O)CCC4(C)C(CC(O)C5C4CC(O)C4(C)C5CC[C@@H]4C(C)CCC(=O)O)C3)cc2c1NCc1ccccc1 (stereo partly drawn)

>  <melting point>
> 185 °C (dec.)

$$$$
>  <molecule>
COC(=O)c1c(C)nc2ccc(C#CC3(O)CCC4(C)C(CC(O)C5C4CC(O)C4(C)C5CC[C@@H]4C(C)CCC(=O)O)C3)cc2c1NCc1ccccc1 (stereo partly drawn)

>  <melting point>
223 °C (dec.)

$$$$
>  <molecule>
Cc1nc2ccccc2c(NCc2ccccc2)c1C(=O)NCCOC1CCC2(C)C(C1)CC(O)C1C2CC(O)C2(C)C1CC[C@@H]2C(C)CCC(=O)NCCS(=O)(=O)O (stereo partly drawn) (as salt: trifluoroacetate)

>  <melting point>
180 °C

$$$$

###

- target.entity: human NHE-3 protein (expressed in the LAP1 cell line) (Homo sapiens, UniProt P48764)
- Construct: expressed in transfected cells; host or cells: LAP1 cell line
- protocol.notes: Inhibition of sodium/proton exchanger subtype 3: recovery of intracellular pH after acidification (BCECF fluorescence)
- Type: cell-based
- experimental.setup: pHi recovery as percentage of the maximum recovery, read-out: remaining activity of hNHE3

>  <compound>
COC(=O)c1c(C)nc2cccc(C)c2c1NCc1ccc(C#CC2(O)CCC3(C)C(CC(O)C4C3CC(O)C3(C)C4CC[C@@H]3C(C)CCC(=O)O)C2)cc1 (some centres unmarked)

>  <remaining activity at 30 µM [%]>
61

$$$$
>  <compound>
CC(=O)c1c(C)nc2ccccc2c1NCc1ccccc1C#CC1(O)CC[C@@]2(C)C(CC(O)C3C2CC(O)[C@@]2(C)C3CC[C@@H]2[C@H](C)CCC(=O)O)C1 (some centres unmarked)

>  <remaining activity at 30 µM [%]>
36

$$$$
>  <compound>
CC(=O)c1c(C)nc2ccccc2c1NCc1cccc(C#CC2(O)CC[C@@]3(C)C(CC(O)C4C3CC(O)[C@@]3(C)C4CC[C@@H]3[C@H](C)CCC(=O)O)C2)c1 (some centres unmarked)

>  <remaining activity at 30 µM [%]>
40

$$$$
>  <compound>
CC(=O)c1c(C)nc2ccccc2c1NCc1cccc(CCC2(O)CC[C@@]3(C)C(CC(O)C4C3CC(O)[C@@]3(C)C4CC[C@@H]3[C@H](C)CCC(=O)O)C2)c1 (some centres unmarked)

>  <remaining activity at 30 µM [%]>
52

$$$$
>  <compound>
CC(=O)c1c(C)nc2ccccc2c1NCc1ccc(CCC2(O)CCC3(C)C(CC(O)C4C3CC(O)C3(C)C4CC[C@@H]3C(C)CCC(=O)O)C2)c(F)c1 (some centres unmarked)

>  <remaining activity at 30 µM [%]>
29

$$$$
